Attribution: paper PMC11171523

Listed compounds paired with reported ΔTm
# Test system: poly A–poly U (pApU, AU-RNA) (RNA, polymer) A/U
# measurement_description: UV melting at 260 nm
# conditions: Na+ (sodium cacodylate, I = 0.05 M); pH 7; ratio [dye]/[polynucleotide] = 0.1; error ±0.5 °C; per base
experimental_readout: ΔTm

sample_smiles	target_desc	experimental_readout	result
CCCC[n+]1ccc(/C=C/c2cc(/C=C/c3cc[n+](CCCC)cc3)cc(/C=C/c3cc[n+](CCCC)cc3)c2)cc1	poly A–poly U (pApU, AU-RNA) (RNA, polymer) A/U	ΔTm	+1.5 °C
C#CC[N+](C)(C)c1ccc(/C=C/c2cc(/C=C/c3ccc([N+](C)(C)CC#C)cc3)c(/C=C/c3ccc([N+](C)(C)CC#C)cc3)cc2/C=C/c2ccc([N+](C)(C)CC#C)cc2)cc1	poly A–poly U (pApU, AU-RNA) (RNA, polymer) A/U	ΔTm	+10.4 °C
C[N+](C)(C)c1ccc(/C=C/c2cc(/C=C/c3ccc([N+](C)(C)C)cc3)c(/C=C/c3ccc([N+](C)(C)C)cc3)cc2/C=C/c2ccc([N+](C)(C)C)cc2)cc1	poly A–poly U (pApU, AU-RNA) (RNA, polymer) A/U	ΔTm	+12.5 °C
C[n+]1ccc(/C=C/c2cc(/C=C/c3cc[n+](C)cc3)c(/C=C/c3cc[n+](C)cc3)cc2/C=C/c2cc[n+](C)cc2)cc1	poly A–poly U (pApU, AU-RNA) (RNA, polymer) A/U	ΔTm	+6.4 °C
CCCC[N+](C)(CCCC)c1ccc(/C=C/c2cc(/C=C/c3ccc([N+](C)(CCCC)CCCC)cc3)c(/C=C/c3ccc([N+](C)(CCCC)CCCC)cc3)cc2/C=C/c2ccc([N+](C)(CCCC)CCCC)cc2)cc1	poly A–poly U (pApU, AU-RNA) (RNA, polymer) A/U	ΔTm	0 °C
C[N+](C)(C)c1ccc(/C=C/c2cc(/C=C/c3ccc([N+](C)(C)C)cc3)cc(/C=C/c3ccc([N+](C)(C)C)cc3)c2)cc1	poly A–poly U (pApU, AU-RNA) (RNA, polymer) A/U	ΔTm	+23.2 °C
